The values you see were collected from BindingDB's records for doi:10.1016/S0960-894X(97)10014-2.

Assay: Inhibition of ADP induced platelet aggregation in human platelet-rich plasma (PRP).
# maps each entry to its pIC50
Schema: pIC50 number; meaning minus log10 of the concentration expressed in molar units.

Worked cases, pIC50 given:
CCCCCCC(CC(=O)O)N1CCc2cc(OCc3ccc(C(=N)N)cc3)ccc2C1=O (configuration not stated)
5.52
N=C(N)c1ccc(COc2ccc3c(c2)CCN(C(CC(=O)O)c2ccccc2)C3=O)cc1 (configuration not stated)
6.70
CCC(CC(=O)O)N1CCc2cc(OCc3ccc(C(=N)N)cc3)ccc2C1=O (configuration not stated)
6.52
COC(=O)c1ccc(C(CC(=O)O)N2CCc3cc(OCc4ccc(C(=N)N)cc4)ccc3C2=O)cc1 (configuration not stated)
6.66
N=C(N)c1ccc(COc2ccc3c(c2)CCN(CC(=O)O)C3=O)cc1
4.52
CCOCCCC(CC(=O)O)N1CCc2cc(OCc3ccc(C(=N)N)cc3)ccc2C1=O (configuration not stated)
6.33
CCCC(CC(=O)O)N1CCc2cc(OCc3ccc(C(=N)N)cc3)ccc2C1=O (configuration not stated)
6.64
COc1ccc(C(CC(=O)O)N2CCc3cc(OCc4ccc(C(=N)N)cc4)ccc3C2=O)cc1 (configuration not stated)
6.59

Q: Return reported pIC50; argument: COCCOCC(CC(=O)O)N1CCc2cc(OCc3ccc(C(=N)N)cc3)ccc2C1=O (configuration not stated)
Result: 6.17

Q: Request: CCCCC(CC(=O)O)N1CCc2cc(OCc3ccc(C(=N)N)cc3)ccc2C1=O (configuration not stated)
Result: 6.22

Q: Request: CCCCCC(CC(=O)O)N1CCc2cc(OCc3ccc(C(=N)N)cc3)ccc2C1=O (configuration not stated)
Result: 6.24

Q: Request: COCCCC(CC(=O)O)N1CCc2cc(OCc3ccc(C(=N)N)cc3)ccc2C1=O (configuration not stated)
Result: 6.22
